system: BT-549; experiment: NCI tumour cell line growth inhibition, 48 h
Activity calls are given as the source filed them. Cut-off read from the data, not from the text of the source: active = GI50 up to about 1.1 µM and inactive = higher.
Permitted responses: active, inactive

Example entries begin here.
OCc1ccc(-c2ccc(-c3ccc(CO)s3)o2)s1; inactive
CC1(C)CCCCCCCCCC2CC2CCC(C)(C)C1=O (stereo unspecified); inactive
C#CCOCC12C=CC(O1)C1COC(=O)C12 (stereo unspecified); inactive
COc1cc(C=C2N=C(c3ccccc3)N(n3c(-c4ccccc4)nc4ccccc4c3=O)C2=O)cc(OC)c1OC; inactive
Nc1nc(O)c([I+]c2ccccc2)c(=O)[nH]1; inactive

// query For CSc1nc(Cl)c2c(n1)Sc1nc3cc4c(cc3n1C2O)OCCO4 (stereo unspecified) , which call appears in the assay record?
// result active
